The reported measurements were obtained from patent US4870002A.

MEASURED PROPERTY: Ki (µM)
Enter your answer as a number in µM; do not include the unit.

Give horseradish peroxidase (Armoracia rusticana, UniProt P00433) Ki for the following molecule: `Nc1cc(C[C@H](N)C(=O)O)ccc1O`
5
